system: Pseudomonas aeruginosa; assay: Tested for minimum inhibitory concentration against Pseudomonas aeruginosa 32121; format: functional; details: Pseudomonas aeruginosa; read-out: MIC
Overview of recorded MIC for various compounds

Below: 3 compounds and their reported MIC.
Problem: Give the measured MIC for O=C(O)c1cn(C2CC2F)c2cc(N3CCNCC3)c(F)cc2c1=O (stereo in doubt; 24)
Solution: ≤ 0.05 µg/mL

Problem: # return recorded MIC for entry CN1CCN(c2cc3c(cc2F)c(=O)c(C(=O)O)cn3C2CC2F)CC1 (stereo in doubt; 26)
Solution: 0.2 µg/mL

Problem: Item CN1CCN(c2cc3c(cc2F)c(=O)c(C(=O)O)cn3[C@@H]2C[C@@H]2F)CC1 (stereo in doubt; 39) : provide MIC
Solution: 0.2 µg/mL

The record that follows has no MIC shown yet.
Problem: Look up and report measured MIC for this entry: O=C(O)c1cn(C2CC2)c2cc(N3CCNCC3)c(F)cc2c1=O
Solution: ≤ 0.05 µg/mL

Origin of the recorded values: ChEMBL document CHEMBL1127078
